Test system: HEK-293T
Assay: Multiplex assay against HEK293T
Assay type: toxicity, cell-based
Conditions: human, 12 h, 1 µM, compound concentration 1 uM, replicate 1
Label t for high-side Population Fragmented Nuclei (%) (at or above 10%) and f for low-side Population Fragmented Nuclei (%) (below it).

Cc1ccc(NC(=O)Nc2cc(C(F)(F)F)ccc2F)cc1Nc1ccc2c(c1)NC(=O)/C2=C\c1ccc[nH]1
t
CCCCN(CC)c1nc(C)nc2c1c(C)cn2-c1c(C)cc(C)cc1C.Cl
t
N#CCNC(=O)c1ccc(-c2ccnc(Nc3ccc(N4CCOCC4)cc3)n2)cc1
f
CN(c1cc(C(F)(F)F)nc(OCCC(=O)O)n1)c1cccc2c1CCC2
t
CC[C@H](Nc1ncnc2[nH]cnc12)c1nc2cccc(F)c2c(=O)n1-c1ccccc1
t
CN1C(=O)[C@@H](NC(=O)c2cc3ccccc3[nH]2)N=C(c2ccccc2)c2ccccc21 [DEVAZEPIDE]
f
C[C@@H](Oc1cc(-n2cnc3ccc(CN4CCN(C)CC4)cc32)sc1C(N)=O)c1ccccc1C(F)(F)F
t
